Biological target: HLA-A*0301 (human)
PROPERTY MEASURED: binding affinity ratio (IC50 of standard peptide / IC50 of test peptide)

[[record]]
binder = "TGLTHIDAH (modifications not checked) [… (HCV polyprotein position 1568)]"
experimental_value = 0.0003

[[record]]
binder = "VAYQATVCAR (modifications not checked) [… (HCV polyprotein position 1592)]"
experimental_value = 0.0005

[[record]]
binder = "TSMLTDPSH (modifications not checked) [… (HCV polyprotein position 2177)]"
experimental_value = 0.0003

[[record]]
binder = "TSERSQPRGR (modifications not checked) [… (HCV polyprotein position 52)]"
experimental_value = 0.0003

